Attribution: patent US20210246166A1

Biological target: Recombinant human MASP2 enzyme (fragment corresponding to amino acids 297-686, C-terminal His Tag) (human, UniProt O00187 297-686)
Sequence (O00187 other isoform, or with tags, fused parts or gaps limits assumed): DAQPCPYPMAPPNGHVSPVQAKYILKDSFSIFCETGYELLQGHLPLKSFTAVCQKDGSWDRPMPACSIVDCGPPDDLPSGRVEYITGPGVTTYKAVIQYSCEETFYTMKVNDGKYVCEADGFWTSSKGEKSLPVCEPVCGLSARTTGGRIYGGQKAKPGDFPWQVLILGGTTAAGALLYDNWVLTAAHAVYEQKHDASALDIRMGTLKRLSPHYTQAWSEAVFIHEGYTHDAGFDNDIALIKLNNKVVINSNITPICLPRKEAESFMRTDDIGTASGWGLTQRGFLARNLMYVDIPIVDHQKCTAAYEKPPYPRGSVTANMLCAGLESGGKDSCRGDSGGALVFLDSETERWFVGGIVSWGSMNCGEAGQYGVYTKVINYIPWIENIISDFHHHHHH
Assay: cell-based or functional assay
Numbered stars: 1 amine (or outer) side, 2 acyl side, 3 side chain; on linkers, the order of the positions; unused ones are H or OH. Bridge positions count the residues as written; N and C are the ends. Square brackets hold non-standard residues; d marks the D form. Ends that are not written are not given here. * marks the point of attachment. Ida = iminodiacetic acid, O=C(CN(CC(=O)[*:3])[*:1])[*:2]; Phe(2,5-diF) = O=C([C@H](Cc1cc(F)ccc1F)N[*:1])[*:2]; Benzoyl(4-COOH) = O=C(O)c1ccc(C(=O)*)cc1; Oic = O=C(O)[C@@H]1C[C@@H]2CCCC[C@@H]2N1; tBuAla = CC(C)(C)C[C@H](N)C(=O)O; Pen = CC(C)(S)[C@H](N)C(=O)O; Sar = CNCC(=O)O
Listed binders paired with reported human MASP2 IC50
Numeric answer only, unit µM assumed.

binder	human MASP2 IC50 (µM)
[dP]ICSRSLP[Oic]I[Pen]IP[Ida]-OH (disulfide 3-11; also: HCl salt) [pIC+SRSLP-(Oic)-I-(Pen)+IP-(Ida)-OH (HCl salt)]	0.065
[Sar]ICSRSLP[Oic]I[Pen]IPX-OH (disulfide 3-11; not fully specified (residue 14); printed as ((N-Me)G)-IC+SRSLP-(Oic)-I-(Pen)+IP-(*Dap)-OH; also: C-terminal Dap joined through its 3-amino group) [((N-Me)G)-IC+SRSLP-(Oic)-I-(Pen)+IP-(*Dap)-OH]	0.055
{Benzoyl(4-COOH)}-GICSRSLP[Oic]I[Pen]IPD-OH (disulfide 3-11; SMILES CC[C@H](C)[C@H](NC(=O)CNC(=O)c1ccc(C(=O)O)cc1)C(=O)N[C@H]1CSSC(C)(C)[C@@H](C(=O)N[C@H](C(=O)N2CCC[C@H]2C(=O)N[C@@H](CC(=O)O)C(=O)O)[C@@H](C)CC)NC(=O)[C@H]([C@@H](C)CC)NC(=O)[C@@H]2C[C@@H]3CCCC[C@@H]3N2C(=O)[C@@H]2CCCN2C(=O)[C@H](CC(C)C)NC(=O)[C@H](CO)NC(=O)[C@H](CCCNC(=N)N)NC(=O)[C@H](CO)NC1=O) [(4-Carboxybenzoic acid)-GIC+SRSLP-(Oic)-I-(Pen)+IPD-OH]	0.021
PICSRS[tBuAla]PPI[Pen]IPD-OH (disulfide 3-11; N-terminus assumed; SMILES CC[C@H](C)[C@H](NC(=O)[C@@H]1CCCN1)C(=O)N[C@H]1CSSC(C)(C)[C@@H](C(=O)N[C@H](C(=O)N2CCC[C@H]2C(=O)N[C@@H](CC(=O)O)C(=O)O)[C@@H](C)CC)NC(=O)[C@H]([C@@H](C)CC)NC(=O)[C@@H]2CCCN2C(=O)[C@@H]2CCCN2C(=O)[C@H](CC(C)(C)C)NC(=O)[C@H](CO)NC(=O)[C@H](CCCNC(=N)N)NC(=O)[C@H](CO)NC1=O) [(beta-P)-IC+SRS-((tBu)A)-PPI-(Pen)+IPD-OH]	0.035

For the next question, use this binder.
Prompt line: Requested read-out: human MASP2 IC50. Entry: [Sar]ICSRS[Phe(2,5-diF)]PPI[Pen]IPD[dD]-OH (disulfide 3-11; N-terminus assumed; SMILES CC[C@H](C)[C@H](NC(=O)CNC)C(=O)N[C@H]1CSSC(C)(C)[C@@H](C(=O)N[C@H](C(=O)N2CCC[C@H]2C(=O)N[C@@H](CC(=O)O)C(=O)N[C@H](CC(=O)O)C(=O)O)[C@@H](C)CC)NC(=O)[C@H]([C@@H](C)CC)NC(=O)[C@@H]2CCCN2C(=O)[C@@H]2CCCN2C(=O)[C@H](Cc2cc(F)ccc2F)NC(=O)[C@H](CO)NC(=O)[C@H](CCCNC(=N)N)NC(=O)[C@H](CO)NC1=O) [((N-Me)G)-IC+SRS-((2,5-Difluoro)F)-PPI-(Pen)+IPDd-OH]
Response line: 0.02
